pIC50: −log10 of the molar value.
The next entries give measured pIC50 for Tyrosine-protein kinase ABL1 (Homo sapiens, UniProt P00519).
Experimental readout: pIC50

Structure smiles string | Test value
CCOc1ccc2cc(-c3nn(CC4CCNCC4)c4ncnc(N)c34)ccc2n1 | < 5.00
CCOc1ccc2cc(-c3nn(CC4CCNCC4)c4ncnc(N)c34)ccc2c1 | < 5.00
COc1ccc2cc(-c3nn(CC4CCNCC4)c4ncnc(N)c34)ccc2c1 | < 5.00
CCOc1ccc2cc(-c3nn(C4CCN(C)CC4)c4ncnc(N)c34)ccc2c1 | < 5.00
CCOc1ccc2cc(-c3nn(CC4CCN(C)CC4)c4ncnc(N)c34)ccc2c1 | 5.34

###

pIC50 by entry:
- Target of assay: Epidermal growth factor receptor (Homo sapiens)
- Sequence (P00533 whole entry): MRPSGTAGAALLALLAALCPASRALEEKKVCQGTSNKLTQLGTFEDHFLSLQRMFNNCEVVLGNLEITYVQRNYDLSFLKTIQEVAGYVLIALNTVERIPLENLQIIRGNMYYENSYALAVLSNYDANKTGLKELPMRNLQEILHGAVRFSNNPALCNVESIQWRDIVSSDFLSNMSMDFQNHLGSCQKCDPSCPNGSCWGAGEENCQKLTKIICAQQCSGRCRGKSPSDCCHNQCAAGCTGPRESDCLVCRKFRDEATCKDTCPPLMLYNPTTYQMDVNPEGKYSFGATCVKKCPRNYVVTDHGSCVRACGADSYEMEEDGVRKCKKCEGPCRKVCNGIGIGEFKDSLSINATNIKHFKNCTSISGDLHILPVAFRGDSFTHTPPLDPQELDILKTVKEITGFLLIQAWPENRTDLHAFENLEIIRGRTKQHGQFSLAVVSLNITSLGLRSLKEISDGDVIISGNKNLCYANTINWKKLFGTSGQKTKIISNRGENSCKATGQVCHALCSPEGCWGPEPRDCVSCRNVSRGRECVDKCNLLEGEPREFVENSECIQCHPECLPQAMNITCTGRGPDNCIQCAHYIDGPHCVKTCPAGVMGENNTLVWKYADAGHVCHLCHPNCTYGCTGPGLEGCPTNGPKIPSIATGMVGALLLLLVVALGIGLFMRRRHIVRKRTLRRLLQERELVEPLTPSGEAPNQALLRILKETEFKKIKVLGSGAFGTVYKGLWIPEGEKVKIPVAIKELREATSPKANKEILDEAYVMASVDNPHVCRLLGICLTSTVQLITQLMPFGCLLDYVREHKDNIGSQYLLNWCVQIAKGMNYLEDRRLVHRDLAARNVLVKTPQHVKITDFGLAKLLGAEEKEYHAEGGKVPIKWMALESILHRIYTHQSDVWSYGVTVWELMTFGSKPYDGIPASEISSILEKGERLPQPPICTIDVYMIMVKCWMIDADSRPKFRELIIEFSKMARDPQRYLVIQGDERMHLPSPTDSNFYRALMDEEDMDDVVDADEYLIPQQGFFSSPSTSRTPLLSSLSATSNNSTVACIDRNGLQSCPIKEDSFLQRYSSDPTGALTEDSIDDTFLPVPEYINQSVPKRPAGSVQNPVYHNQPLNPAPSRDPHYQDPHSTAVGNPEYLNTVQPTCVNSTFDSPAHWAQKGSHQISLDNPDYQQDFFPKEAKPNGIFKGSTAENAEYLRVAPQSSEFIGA
- Protocol details: Inhibition of human EGFR using poly glu-Tyr as substrate after 30 mins
pIC50: −log10 of the molar value.

Structure smiles string | pIC50
COc1ccc2cc(-c3nn(CC4CCNCC4)c4ncnc(N)c34)ccc2c1 | < 5.00
COc1ccc2cc(-c3nn(C(C)C)c4ncnc(N)c34)ccc2c1 | 6.29
CCOc1ccc2cc(-c3nn(CC4CCNCC4)c4ncnc(N)c34)ccc2n1 | < 5.00
CCOc1ccc2cc(-c3nn(CC4CCN(C)CC4)c4ncnc(N)c34)ccc2c1 | < 5.00
CCOc1ccc2cc(-c3nn(C4CCN(C)CC4)c4ncnc(N)c34)ccc2c1 | < 5.00
CCOc1ccc2cc(-c3nn(CC4CCNCC4)c4ncnc(N)c34)ccc2c1 | < 5.00

###

The next entries give measured pIC50 for Proto-oncogene tyrosine-protein kinase Src (Homo sapiens, UniProt P12931).
pIC50: −log10 of the molar value.

Structure smiles string | pIC50
Nc1ncnc2c1c(-c1cnc3ccccc3c1)nn2CC1CCNCC1 | < 5.00
CC(C)n1nc(-c2cc3c(Cl)cccc3[nH]2)c2c(N)ncnc21 | 5.92
CCOc1ccc2cc(-c3nn(CC4CCN(C)CC4)c4ncnc(N)c34)ccc2c1 | < 5.00
CC(C)(C)n1ncc2c(N)ncnc21 | < 5.00
CCOc1ccc2cc(-c3nn(CC4CCN(C(C)=O)CC4)c4ncnc(N)c34)ccc2c1 | < 5.00
CCOc1ccc2cc(-c3nn(CC4CCNCC4)c4ncnc(N)c34)ccc2c1 | < 5.00
COc1ccc2cc(-c3nn(C(C)C)c4ncnc(N)c34)ccc2c1 | 6.17
Nc1ncnc2c1cnn2CC1CCNCC1 | < 5.00
CC(C)n1nc(-c2cc3ccccc3[nH]2)c2c(N)ncnc21 | 5.82
CCOc1ccc2cc(-c3nn(CC4CCNCC4)c4ncnc(N)c34)ccc2n1 | < 5.00

###

- Target of assay: Tyrosine-protein kinase Lck (Homo sapiens, UniProt P06239)
- Sequence (P06239 whole entry): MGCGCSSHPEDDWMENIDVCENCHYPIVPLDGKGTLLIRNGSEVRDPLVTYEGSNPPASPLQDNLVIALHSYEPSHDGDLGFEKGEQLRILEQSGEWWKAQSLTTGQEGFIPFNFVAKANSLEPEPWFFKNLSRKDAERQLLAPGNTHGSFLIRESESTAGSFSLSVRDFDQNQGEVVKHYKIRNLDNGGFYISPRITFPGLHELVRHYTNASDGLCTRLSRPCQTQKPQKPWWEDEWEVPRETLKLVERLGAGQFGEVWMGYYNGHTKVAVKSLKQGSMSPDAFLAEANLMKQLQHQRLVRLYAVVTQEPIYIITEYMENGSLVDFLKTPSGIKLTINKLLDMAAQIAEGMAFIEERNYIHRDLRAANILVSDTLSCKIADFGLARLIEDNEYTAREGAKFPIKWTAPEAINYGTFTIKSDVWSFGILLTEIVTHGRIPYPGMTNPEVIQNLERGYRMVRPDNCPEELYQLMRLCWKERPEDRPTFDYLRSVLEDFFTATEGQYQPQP
- Protocol details: Inhibition of human LCK using Ac-EIYGEFKKK-OH as substrate after 60 mins
One threshold, 100 nM, splits the recorded IC50 values: lower ones are Fulfilled, equal or higher ones are Not fulfilled.

Structure smiles string | Label value
CCOc1ccc2cc(-c3nn(CC4CCNCC4)c4ncnc(N)c34)ccc2n1 | Not fulfilled
CCOc1ccc2cc(-c3nn(C4CCN(C)CC4)c4ncnc(N)c34)ccc2c1 | Not fulfilled
COc1ccc2cc(-c3nn(C(C)C)c4ncnc(N)c34)ccc2c1 | Fulfilled
COc1ccc2cc(-c3nn(CC4CCNCC4)c4ncnc(N)c34)ccc2c1 | Not fulfilled
CCOc1ccc2cc(-c3nn(C(C)C)c4ncnc(N)c34)ccc2c1 | Fulfilled
CCOc1ccc2cc(-c3nn(CC4CCN(C)CC4)c4ncnc(N)c34)ccc2c1 | Not fulfilled
CCOc1ccc2cc(-c3nn(CC4CCNCC4)c4ncnc(N)c34)ccc2c1 | Not fulfilled

###

IC50 by entry:
- Target of assay: Ephrin type-A receptor 3 (Homo sapiens)
- Sequence (P29320 whole entry): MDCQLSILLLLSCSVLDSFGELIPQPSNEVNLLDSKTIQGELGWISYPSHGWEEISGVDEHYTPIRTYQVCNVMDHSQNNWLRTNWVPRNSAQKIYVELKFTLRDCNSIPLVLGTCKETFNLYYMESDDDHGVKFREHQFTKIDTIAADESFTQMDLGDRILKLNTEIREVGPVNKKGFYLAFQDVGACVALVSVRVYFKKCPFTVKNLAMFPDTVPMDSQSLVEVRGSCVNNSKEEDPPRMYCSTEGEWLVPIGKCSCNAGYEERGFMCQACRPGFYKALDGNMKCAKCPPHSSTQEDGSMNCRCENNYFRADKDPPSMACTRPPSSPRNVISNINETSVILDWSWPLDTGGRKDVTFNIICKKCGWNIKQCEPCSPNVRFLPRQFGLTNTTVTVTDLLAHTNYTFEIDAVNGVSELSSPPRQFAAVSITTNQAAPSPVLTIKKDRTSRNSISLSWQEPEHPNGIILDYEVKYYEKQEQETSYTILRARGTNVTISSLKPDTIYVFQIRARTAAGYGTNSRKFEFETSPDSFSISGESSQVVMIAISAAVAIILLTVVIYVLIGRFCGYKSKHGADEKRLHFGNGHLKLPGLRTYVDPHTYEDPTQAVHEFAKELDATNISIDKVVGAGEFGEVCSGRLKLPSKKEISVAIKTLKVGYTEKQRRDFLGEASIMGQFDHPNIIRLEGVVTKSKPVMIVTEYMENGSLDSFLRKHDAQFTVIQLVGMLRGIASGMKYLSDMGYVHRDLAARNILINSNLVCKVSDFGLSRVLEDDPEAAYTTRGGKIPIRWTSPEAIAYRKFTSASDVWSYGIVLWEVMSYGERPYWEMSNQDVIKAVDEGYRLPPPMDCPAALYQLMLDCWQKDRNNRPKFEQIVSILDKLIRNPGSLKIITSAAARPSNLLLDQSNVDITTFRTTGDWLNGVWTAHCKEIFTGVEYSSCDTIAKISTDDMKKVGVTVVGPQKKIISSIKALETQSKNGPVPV
- Protocol details: Inhibition of human EPHA3 using myelin basic protein as substrate after 120 mins

Structure smiles string | IC50
COc1ccc2cc(-c3nn(C(C)C)c4ncnc(N)c34)ccc2c1 | 1.6 µM
CCOc1ccc2cc(-c3nn(CC4CCNCC4)c4ncnc(N)c34)ccc2c1 | > 10 µM
CCOc1ccc2cc(-c3nn(CC4CCNCC4)c4ncnc(N)c34)ccc2n1 | > 10 µM
CCOc1ccc2cc(-c3nn(C4CCN(C)CC4)c4ncnc(N)c34)ccc2c1 | > 10 µM
COc1ccc2cc(-c3nn(CC4CCNCC4)c4ncnc(N)c34)ccc2c1 | > 10 µM
CCOc1ccc2cc(-c3nn(CC4CCN(C)CC4)c4ncnc(N)c34)ccc2c1 | > 10 µM
